# credit: patent US20250084058A1

test system: Plutella xylostella; assay: Activity determination of killing Plutella xylostella (Airbrush spray, cabbage leaf discs); type: in vivo; details: foliar, 0.3125 mg/L, parallel comparative experiment, 3rd day after administration, read-out: Mortality (%, on 3rd day after administration) 0.3125 mg/L
Below: a set of entries, each annotated with reported mortality at 0.3125 µg/mL.
Lab book: enter the figure in %, no units written.

{"compound": "C#CCN(C(=O)c1cc(-c2cnn(-c3c(Cl)cc(C(F)(C(F)(F)F)C(F)(F)F)cc3Cl)c2)cnc1Cl)C1CC1 [Compound 2]", "target_or_test_system": "Plutella xylostella", "mortality at 0.3125 µg/mL (%)": 90}

Task item: Consider the compound N#CCCN(C(=O)c1cc(-c2cnn(-c3c(Cl)cc(C(F)(C(F)(F)F)C(F)(F)F)cc3Cl)c2)cnc1Cl)C1CC1 [Compound 5] and give its measured mortality at 0.3125 µg/mL.
Reply: 100

Task item: Consider the compound C=CCN(C(=O)c1cc(-c2cnn(-c3c(Cl)cc(C(F)(C(F)(F)F)C(F)(F)F)cc3Cl)c2)cnc1Cl)C1CC1 [Compound 1] and give its measured mortality at 0.3125 µg/mL.
Reply: 93.3
